# credit: patent US20040037843A1

# TARGET_ENTITY: HLA-A*0201 (human)
# PROTOCOL_DETAILS: inhibition of 125I probe peptide binding to purified HLA
ENDPOINT_NAME: pIC50
// pIC50 is dimensionless: -log10 of concentration (M)

Give the measured pIC50 of LLLARAASLSL [Peptide 63.0136 LLLARAASLSL (PAP.6)] .
8.09
